targetDesc: MOPC315 Fab, thiolated (affinity-labeled with 2 and cleaved; free thiol at lysine 52H) (Mus musculus, UniProt P01729+P01822+P01878)
Sequence (P01822+P01878 fused): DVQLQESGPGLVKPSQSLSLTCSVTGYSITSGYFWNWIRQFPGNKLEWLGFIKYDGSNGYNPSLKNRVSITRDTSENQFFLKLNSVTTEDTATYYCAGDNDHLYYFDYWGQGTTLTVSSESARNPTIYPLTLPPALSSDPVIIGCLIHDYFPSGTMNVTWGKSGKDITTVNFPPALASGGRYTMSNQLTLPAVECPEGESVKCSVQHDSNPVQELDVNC
Sequence (P01729 20-129): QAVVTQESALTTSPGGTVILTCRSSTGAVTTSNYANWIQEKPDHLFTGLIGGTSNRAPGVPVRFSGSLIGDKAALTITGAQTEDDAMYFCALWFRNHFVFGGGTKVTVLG
runDescription: Thiolysis of DNP coumarin ester by thiolated Fab
observable: Ki (µM)
Note: unit µM is implicit; provide only the numeric part.

Query: Looking for the measured Ki of "O=C(O)CNc1ccc([N+](=O)[O-])cc1[N+](=O)[O-]" , can you help?
Response: 8

* * *

targetDesc: MOPC315 Fv, wild type, Fv(315) (Mus musculus, UniProt P01729+P01822)
Construct: The Fv fragment (26 kD) is a heterodimer consisting of two peptides, VH (14 kD) and VL (12 kD)
runDescription: Fv fluorescence titration with DNP-L-lysine
conditionDetails: pH 6.8; ±SE
observable: Kd

Query: Reported Kd for MOPC315 Fv, wild type, Fv(315) (Mus musculus, UniProt P01729+P01822), given "N[C@@H](CCCCNc1ccc([N+](=O)[O-])cc1[N+](=O)[O-])C(=O)O" ?
Response: 270 nM

* * *

targetDesc: MOPC315 Fv variant Fv(Y34HL), Tyr 34L to His (Mus musculus, UniProt P01729+P01822, Y53H)
Construct: Antibody-derived VH was prepared by denaturing ion exchange chromatography of authentic MOPC315 Fv, obtained from pepsin digestion of purified IgA; lambda cII fusion with Factor Xa site (IleGluGlyArg) (N, cleaved yes); VH: pepsin-cleaved MOPC315 IgA from mouse ascites
Sequence (P01729 with tags, fused parts or gaps Y53H, one chain of several): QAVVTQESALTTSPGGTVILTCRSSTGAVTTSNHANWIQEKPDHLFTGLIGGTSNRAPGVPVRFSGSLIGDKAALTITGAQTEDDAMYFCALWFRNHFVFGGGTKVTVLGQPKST
runDescription: Hydrolysis of DNP coumarin esters 1-3 by Fv
observable: Ki

Query: Looking for the measured Ki of "N[C@@H](CCCCNc1ccc([N+](=O)[O-])cc1[N+](=O)[O-])C(=O)O" , can you help?
Response: 3.8 µM

* * *

targetDesc: underivatized MOPC 315
runDescription: Fluorescence quenching binding in PBS
observable: Kd
Hi, when you answer, please include the unit after the number. Thanks!

Query: Looking for the measured Kd of O=C(O)CNc1ccc([N+](=O)[O-])cc1[N+](=O)[O-] [DNP-glycine, N-DNP-glycine] , can you help?
Response: 5 µM

* * *

targetDesc: MOPC315 Fv variant Fv(Y34FL), Tyr 34L to Phe
runDescription: Fv fluorescence titration with DNP-L-lysine
conditionDetails: pH 6.8; ±SE
Procedure: FIG. 21 is a plot of Fv fluorescence titration with DNP-L-lysine as described in Example 6 of the Experimental section herein. Fv(315)(·),Fv(Y34FL)(Δ), or Fv(Y34HL)(o)(400 μl, 450-500 nM, ε280 nm=37,500 M^-1) in 100 mM potassium phosphate, pH 6.8 (buffer A), was titrated with solutions of 10-100 μM DNP-L-lysine (ε360 nm =17,500 M^-1) in buffer A while monitoring the protein fluorescence (excitation: 282 nm; emission: 343 nm). Fluorescence was corrected for the change in volume. […]
observable: pKd
Just so you know, pKd here is -log10 of the concentration in molar units; reply with that number alone.

Query: Looking for the measured pKd of "N[C@@H](CCCCNc1ccc([N+](=O)[O-])cc1[N+](=O)[O-])C(=O)O" , can you help?
Response: 6.57
